Biological target: ganglionic-like nicotinic acetylcholine receptor (nAChR) subtype in IMR-32 human neuroblastoma cells (Homo sapiens, UniProt P30926+P32297)
Construct: host or cells: IMR-32 human neuroblastoma cells
Sequence (P32297 32-505): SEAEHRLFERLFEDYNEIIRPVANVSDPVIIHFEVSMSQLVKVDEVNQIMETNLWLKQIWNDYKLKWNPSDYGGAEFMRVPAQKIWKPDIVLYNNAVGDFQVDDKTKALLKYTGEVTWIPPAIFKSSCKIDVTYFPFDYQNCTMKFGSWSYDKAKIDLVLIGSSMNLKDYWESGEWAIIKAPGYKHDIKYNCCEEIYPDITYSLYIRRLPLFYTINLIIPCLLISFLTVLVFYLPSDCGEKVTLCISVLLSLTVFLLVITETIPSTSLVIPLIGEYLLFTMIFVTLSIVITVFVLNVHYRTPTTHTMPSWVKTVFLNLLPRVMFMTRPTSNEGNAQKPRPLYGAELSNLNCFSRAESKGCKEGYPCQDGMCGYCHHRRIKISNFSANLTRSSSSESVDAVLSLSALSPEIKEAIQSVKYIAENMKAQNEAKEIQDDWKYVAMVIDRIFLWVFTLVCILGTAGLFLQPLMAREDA
Sequence (P30926 22-498): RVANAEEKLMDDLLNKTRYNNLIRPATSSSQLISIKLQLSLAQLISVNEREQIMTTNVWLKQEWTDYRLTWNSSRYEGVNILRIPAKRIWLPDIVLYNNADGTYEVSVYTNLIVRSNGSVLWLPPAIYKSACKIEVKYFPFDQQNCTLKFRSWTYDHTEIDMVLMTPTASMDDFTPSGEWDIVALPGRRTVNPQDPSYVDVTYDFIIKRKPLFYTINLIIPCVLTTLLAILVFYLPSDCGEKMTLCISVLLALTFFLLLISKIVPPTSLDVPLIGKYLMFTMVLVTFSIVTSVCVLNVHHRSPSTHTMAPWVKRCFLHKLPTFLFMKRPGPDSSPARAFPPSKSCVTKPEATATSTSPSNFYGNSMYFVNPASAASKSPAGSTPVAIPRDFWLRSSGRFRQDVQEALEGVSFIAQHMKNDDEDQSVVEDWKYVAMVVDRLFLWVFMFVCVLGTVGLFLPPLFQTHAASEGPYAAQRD
Experiment: IMR-32 FLIPR assay, intracellular Ca2+ changes (side effect liability)
Assay type: cell-based
Details: percent maximal intensity relative to 100 μM nicotine; read-out: EC50 (calcium, IMR-32 cells)
METRIC NAME: EC50

Indicate its recorded EC50; the compound in question is Clc1cc(N2C[C@@H]3CN[C@@H]3C2)cnc1Cl 5.5 µM

###

Molecular target: ganglionic-like nicotinic acetylcholine receptor (nAChR) subtype in IMR-32 human neuroblastoma cells (Homo sapiens, UniProt P30926+P32297)
Construct: host or cells: IMR-32 human neuroblastoma cells
Assay: IMR-32 FLIPR assay, intracellular Ca2+ changes (side effect liability)
Type: cell-based
Conditions: IMR-32; Table 1; relative to nicotine; read-out: IMR-32 activitiy % efficacy
METRIC NAME: Emax (%)
One number for each entry, in %.

A selection of reference data follows.
Indicate its recorded Emax; the compound in question is N#Cc1cncc(N2C[C@@H]3CN[C@@H]3C2)c1 85

Indicate its recorded Emax; the compound in question is COc1cncc(N2C[C@@H]3CN[C@@H]3C2)c1 147

Next item in the queue.
Indicate its recorded Emax; the compound in question is c1cncc(N2C[C@@H]3CN[C@@H]3C2)c1 100
